measured.target: p38 (Homo sapiens)
Sequence (Q16539 whole entry): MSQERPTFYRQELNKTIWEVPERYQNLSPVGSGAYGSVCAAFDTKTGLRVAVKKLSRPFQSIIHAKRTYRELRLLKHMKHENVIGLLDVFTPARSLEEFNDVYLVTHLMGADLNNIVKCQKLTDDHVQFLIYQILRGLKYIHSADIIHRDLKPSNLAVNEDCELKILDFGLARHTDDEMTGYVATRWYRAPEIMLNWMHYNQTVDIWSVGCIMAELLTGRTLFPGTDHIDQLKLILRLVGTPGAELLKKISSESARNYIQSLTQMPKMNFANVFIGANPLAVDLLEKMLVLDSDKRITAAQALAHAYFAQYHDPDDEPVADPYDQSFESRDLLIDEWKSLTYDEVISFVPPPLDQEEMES
test.name: p38 in-vitro HTRF enzyme assay
Type: biochemical
experimental.parameters: recombinant human enzyme; range symbols; read-out: p38 enyme HTRF assay IC50
pIC50: −log10 of the molar value.
Consider the following compounds and their measured pIC50 readings.

[
  {
    "compound": "Cn1c(=O)cc(Nc2ccc(F)cc2F)c2cnn(-c3ccc(F)cc3F)c21 [Example 9]",
    "measured.target": "p38 (Homo sapiens)",
    "pIC50": "5.30 to 6.00"
  },
  {
    "compound": "Cc1ccc(C(=O)O)cc1Nc1cc(=O)n(C)c2c1cnn2-c1ccc(F)cc1F [Example 17]",
    "measured.target": "p38 (Homo sapiens)",
    "pIC50": "5.30 to 6.00"
  },
  {
    "compound": "Cn1c(=O)cc(Nc2cc(C(=O)NC3CC3)ccc2Cl)c2cnn(-c3c(F)cccc3F)c21 [Example 11]",
    "measured.target": "p38 (Homo sapiens)",
    "pIC50": "> 7.60"
  },
  {
    "compound": "Cc1ccc(C(N)=O)cc1Nc1cc(=O)n(C)c2c1cnn2-c1cc(F)ccc1F [Example 21]",
    "measured.target": "p38 (Homo sapiens)",
    "pIC50": "> 7.60"
  },
  {
    "compound": "Cc1ccc(C(=O)NC2CC2)cc1Nc1cc(=O)n(C)c2c1cnn2-c1cccc(F)c1 [Example 4]",
    "measured.target": "p38 (Homo sapiens)",
    "pIC50": "> 7.60"
  },
  {
    "compound": "Cc1ccc(C(=O)NC2CC2)cc1Nc1cc(=O)n(C)c2c1cnn2-c1c(F)cccc1F [Example 15]",
    "measured.target": "p38 (Homo sapiens)",
    "pIC50": "> 7.60"
  },
  {
    "compound": "CCn1c(=O)cc(Nc2cc(C(=O)NC3CC3)ccc2C)c2cnn(-c3ccc(F)cc3)c21 [Example 23]",
    "measured.target": "p38 (Homo sapiens)",
    "pIC50": "> 7.60"
  },
  {
    "compound": "Cc1ccc(C(=O)NC2CC2)cc1Oc1cc(=O)n(C)c2c1cnn2-c1cccc(F)c1 [Example 5]",
    "measured.target": "p38 (Homo sapiens)",
    "pIC50": "> 7.60"
  },
  {
    "compound": "Cc1ccc(C(=O)NC2CC2)cc1Nc1cc(=O)n(C)c2c1cnn2-c1cc(F)ccc1F [Example 20]",
    "measured.target": "p38 (Homo sapiens)",
    "pIC50": "> 7.60"
  },
  {
    "compound": "Cc1ccc(C(=O)NC2CC2)cc1Oc1cc(=O)n(C)c2c1cnn2-c1ccc(F)cc1F [Example 19]",
    "measured.target": "p38 (Homo sapiens)",
    "pIC50": "> 7.60"
  },
  {
    "compound": "CCn1c(=O)cc(Oc2cc(C(=O)NC3CC3)ccc2C)c2cnn(-c3ccc(F)cc3)c21 [Example 24]",
    "measured.target": "p38 (Homo sapiens)",
    "pIC50": "> 7.60"
  },
  {
    "compound": "Cc1ccc(C(=O)NC2CC2)cc1Oc1cc(=O)n(C)c2c1cnn2-c1cc(F)ccc1F [Example 22]",
    "measured.target": "p38 (Homo sapiens)",
    "pIC50": "> 7.60"
  },
  {
    "compound": "Cn1c(=O)cc(Nc2cc(C(=O)NC3CC3)ccc2F)c2cnn(-c3ccc(F)cc3F)c21 [Example 7]",
    "measured.target": "p38 (Homo sapiens)",
    "pIC50": "> 7.60"
  },
  {
    "compound": "Cc1ccc(C(N)=O)cc1Nc1cc(=O)n(C)c2c1cnn2-c1ccc(F)cc1F [Example 18]",
    "measured.target": "p38 (Homo sapiens)",
    "pIC50": "> 7.60"
  },
  {
    "compound": "Cc1ccncc1Nc1cc(=O)n(C)c2c1cnn2-c1cc(F)ccc1F [Example 8]",
    "measured.target": "p38 (Homo sapiens)",
    "pIC50": "5.30 to 6.00"
  },
  {
    "compound": "Cn1c(=O)cc(Nc2ccc(F)cc2)c2cnn(-c3c(F)cccc3F)c21 [Example 10]",
    "measured.target": "p38 (Homo sapiens)",
    "pIC50": "5.30 to 6.00"
  },
  {
    "compound": "Cc1ccc(C(=O)NC2CC2)cc1Oc1cc(=O)n(C)c2c1cnn2-c1c(F)cccc1F [Example 16]",
    "measured.target": "p38 (Homo sapiens)",
    "pIC50": "> 7.60"
  },
  {
    "compound": "Cn1c(=O)cc(Nc2cc(C(=O)NC3CC3)ccc2Cl)c2cnn(-c3cc(F)ccc3F)c21 [Example 12]",
    "measured.target": "p38 (Homo sapiens)",
    "pIC50": "> 7.60"
  }
]

---

Consider the following compounds and their measured IC50 readings.
Test system: THP1 cells
test.name: Lipopolysaccharide-activated THP1 cell TNF production assay (THP1 cell based)
experimental.parameters: Homo sapiens, THP-1, LPS-induced TNF-α, range symbols

[
  {
    "compound": "Cc1ccc(C(=O)NC2CC2)cc1Nc1cc(=O)n(C)c2c1cnn2-c1cc(F)ccc1F [Example 20]",
    "measured.target": "THP1 cells",
    "IC50": "< 25 nM"
  },
  {
    "compound": "Cc1ccc(C(=O)NC2CC2)cc1Nc1cc(=O)n(C)c2c1cnn2-c1c(F)cccc1F [Example 15]",
    "measured.target": "THP1 cells",
    "IC50": "< 25 nM"
  },
  {
    "compound": "CCn1c(=O)cc(Nc2cc(C(=O)NC3CC3)ccc2C)c2cnn(-c3ccc(F)cc3)c21 [Example 23]",
    "measured.target": "THP1 cells",
    "IC50": "< 25 nM"
  },
  {
    "compound": "Cn1c(=O)cc(Nc2cc(C(=O)NC3CC3)ccc2Cl)c2cnn(-c3cc(F)ccc3F)c21 [Example 12]",
    "measured.target": "THP1 cells",
    "IC50": "< 25 nM"
  },
  {
    "compound": "Cn1c(=O)cc(Nc2cc(C(=O)NC3CC3)ccc2F)c2cnn(-c3ccc(F)cc3F)c21 [Example 7]",
    "measured.target": "THP1 cells",
    "IC50": "< 25 nM"
  },
  {
    "compound": "Cc1ccc(C(=O)NC2CC2)cc1Oc1cc(=O)n(C)c2c1cnn2-c1c(F)cccc1F [Example 16]",
    "measured.target": "THP1 cells",
    "IC50": "< 25 nM"
  },
  {
    "compound": "Cc1ccc(C(=O)NC2CC2)cc1Nc1cc(=O)n(C)c2c1cnn2-c1cccc(F)c1 [Example 4]",
    "measured.target": "THP1 cells",
    "IC50": "< 25 nM"
  },
  {
    "compound": "Cn1c(=O)cc(Nc2cc(C(=O)NC3CC3)ccc2Cl)c2cnn(-c3ccc(F)cc3F)c21 [Example 13]",
    "measured.target": "THP1 cells",
    "IC50": "< 25 nM"
  },
  {
    "compound": "Cc1ccc(C(=O)NC(C)(C)C)cc1Nc1cc(=O)n(C)c2c1cnn2-c1ccc(F)cc1F [Example 25]",
    "measured.target": "THP1 cells",
    "IC50": "25 to 99 nM"
  },
  {
    "compound": "Cc1ccc(C(=O)NC2CC2)cc1Oc1cc(=O)n(C)c2c1cnn2-c1cc(F)ccc1F [Example 22]",
    "measured.target": "THP1 cells",
    "IC50": "< 25 nM"
  },
  {
    "compound": "Cc1ccncc1Nc1cc(=O)n(C)c2c1cnn2-c1cc(F)ccc1F [Example 8]",
    "measured.target": "THP1 cells",
    "IC50": "100 to 249 nM"
  },
  {
    "compound": "Cn1c(=O)cc(Nc2ccc(F)cc2F)c2cnn(-c3ccc(F)cc3F)c21 [Example 9]",
    "measured.target": "THP1 cells",
    "IC50": "250 to 999 nM"
  },
  {
    "compound": "CCn1c(=O)cc(Oc2cc(C(=O)NC3CC3)ccc2C)c2cnn(-c3ccc(F)cc3)c21 [Example 24]",
    "measured.target": "THP1 cells",
    "IC50": "< 25 nM"
  }
]

---

measured.target: p38 (Homo sapiens)
test.name: p38 in-vitro HTRF enzyme assay
Type: biochemical
experimental.parameters: recombinant human enzyme; actual values; read-out: p38 enyme HTRF assay IC50
pIC50: −log10 of the molar value.
observable: pIC50

[
  {
    "mol.smiles": "CONC(=O)c1ccc(C)c(Nc2cc(=O)n(C)c3c2cnn3-c2ccc(F)cc2F)c1",
    "quantitative.readout": 8.80
  },
  {
    "mol.smiles": "CCn1c(=O)cc(Nc2cc(C(=O)NC3CC3)ccc2Cl)c2cnn(-c3ccc(F)cc3F)c21",
    "quantitative.readout": 8.92
  },
  {
    "mol.smiles": "Cn1c(=O)cc(Nc2cc(C(=O)NC3CC3)ccc2Cl)c2cnn(-c3ccc(F)cc3)c21",
    "quantitative.readout": 8.68
  },
  {
    "mol.smiles": "CCn1c(=O)cc(Nc2cc(C(=O)NC3CC3)ccc2Cl)c2cnn(-c3ccc(F)cc3)c21",
    "quantitative.readout": 8.77
  }
]
